# Tested on: SK-MEL-5
# Experimental protocol: NCI tumour cell line growth inhibition, 48 h
Activity calls are given as the source filed them. Cut-off read from the data, not from the text of the source: active = GI50 up to about 1.1 µM and inactive = higher.
Outcomes: Yes = active, No = inactive

> print(dat)
                                   compound  measured.target  cat
1  CC[n+]1c(/C=C/c2ccc(N(CCCl)CCCl)cc2)ccc2cc(I)ccc21         SK-MEL-5  Yes
2  CCCCCCCCCCCc1c(O)c(=O)c2c(oc3c(=O)c(CCCCCCCCCCC)c(O)c(=O)c3n2-c2ccc(N(C)C)cc2)c1=O         SK-MEL-5   No
3  CC1CC2OC(=O)C(C)C2CC2(C)C(OC3OC(CO)C(O)C(O)C3O)OCCC12 (centres undefined)         SK-MEL-5   No
4  Cc1c2ccncc2c(C)c2c1[nH]c1ccc(OC(C)(C)C)cc12         SK-MEL-5   No
